Give measured GI50 for each item. Keep answers brief.
test system: NCI-H460; assay: NCI tumour cell line growth inhibition, 48 h
The source made the active and inactive calls. No stated cut-off is given here; in the data, active = GI50 up to about 1.1 µM and inactive = higher.

[Q] Enter reported GI50 observed with NCI-H460 for `COc1ccc(/C=C/c2ccnc3ccccc23)cc1`
[A] 23.6 µM (inactive)

[Q] Request - read-out GI50 | tested on NCI-H460 | molecule `COc1ccc(C[C@H](N)C(=O)N2C[C@H](CO)C[C@H](n3cnc4c(N(C)C)ncnc43)C2)cc1`
[A] > 100 µM (inactive)

[Q] Recall the recorded GI50 for `COC1=CC(=O)C2=C(C[C@@]3(C)C(=C2)C(CO)=CC[C@H]3O)C1=O` with NCI-H460 and state it.
[A] 25.9 µM (inactive)

[Q] Write down the reported GI50 of `CC1(C)CCC(C)(C)c2cc(C(=O)Nc3ccc(C(=O)O)cc3)ccc21` , test system: NCI-H460.
[A] 19.9 µM (inactive)

The reported numbers originate from ChEMBL document CHEMBL1201862.
